# experimental details: folding stability dG unfold from trypsin proteolysis; higher = more stable
Everything with folding stability dG unfold lower than 1 kcal/mol is Not met; everything else, including exactly 1 kcal/mol, is Met.

Ask: Record SASVTTLTFTVTYPGGETETFTVTVPNLTEEEAKALAEKLAEEIQEKSKKPGVKVEVSITRYPADDPALSAG [r14_207_JUSTAS] ; criterion: folding stability dG unfold no lower than 1 kcal/mol. Met?
Reply: Met

Ask: Is folding stability dG unfold at least 1 kcal/mol? Consider SAGGSAGGSASNVKILGLVSVDPETGLVRLAAYDPETGKVLYFIAPNADGEPLLLEVEENPGSAGGSAGGSA [r18_296_TrMRF]
Reply: Met

Ask: Is reported folding stability dG unfold greater than or equal to 1 kcal/mol here: SAGGSAGGSAGGEEKEVYLVRFRRPDGSEVTVVAPWEDLEEIVKSLPEAVEVEVEKAPLSAGGSAGGSAGGS [r10_437_TrMRF]
Reply: Met

Ask: Item SAGGSAGGSGMVSSVVKHTVELNVPENRPNAEELAAELRAAHPGVTVVEITETPNKAVITVEESAGGSAGGS [r12_454_JUSTAS] with folding stability dG unfold of 1 kcal/mol or above?
Reply: Not met

Ask: Given SAGGSAGGSAGEVVLSPTDKTLTLTSFDPKTGVTYYTVFYPATGTTSTTSTGNLESLIAASAGGSAGGSAGG [r17_300_JUSTAS] , state whether its folding stability dG unfold is at least 1 kcal/mol.
Reply: Met

Ask: Quick check: does SAGGSAGGSELEKALASAKPGEEVTVTVESTTPDGTPSVEIVEVKVEAETPSPGKENLEKNRLVSAGGSAGG [r6_893_JUSTAS] have folding stability dG unfold greater than or equal to 1 kcal/mol?
Reply: Not met

Ask: Is the recorded value of folding stability dG unfold equal to or greater than 1 kcal/mol for this sequence? SAGGMVLVRIRVDMSPEERKRLEEELRKRVTEVRYLPEDEDVVEVRVSPEALAELPEERITEVELLPSAGGS [r16_328_TrROS_Hall]
Reply: Not met
